target or test system: SARS-CoV-2 3CL protease (Severe acute respiratory syndrome coronavirus 2)
assay protocol: Biochemical inhibition of peptide cleavage by purified SARS-CoV-2 3CL protease (fluorogenic)
Let's look at some compounds and their measured pIC50.
Field pIC50 (float): negative decimal logarithm of the concentration in molar.

pIC50 measured on "O=C(Oc1ccc2ccc(=O)oc2c1)c1cccs1" = 5.96

Okay, now this compound:
The recorded pIC50 for entry "CCc1cc(=O)oc2cc(OC(=O)c3ccco3)ccc12" equals 6.61

Numbers sourced from paper PMC11790949.
